assay_procedure: chemical genetic growth profiling, strain panel (AID 1159580);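 note: tested at 20 µM; growth read once vehicle control cultures reached saturation at 30 °C; 1 = growth at the plate median or of vehicle wells; lower values mean less growth of the strain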
measurement_context: S. cerevisiae deletion strains, growth OD, locus YAL021C, strain ccr4, active compounds read low
Out of some 5,500 compounds screened, about 2,000 (36%) were called active. Not shown: some 18% with an inconclusive outcome. The list shows a part of the results.
metric: normalized growth
Note: the reply should be a number with no unit written.

- O=c1ccc2cc(O)c(O)cc2o1: 1.01
- C=CCc1ccc2c(c1)OCO2: 1.02

Fill blank: measured normalized growth of the molecule CC(C)[N+](C)(CCOC(=O)C1c2ccccc2Oc2ccccc21)C(C)C is ____. 1.01

# input molecule: Cc1cc(=O)c2c(O)cc(O)c(C)c2o1 ; wanted: its normalized growth 0.976

Give its normalized growth value. Item: COc1c(O)cc2oc3cc(O)c(CC=C(C)C)c(O)c3c(=O)c2c1CC=C(C)C 1

What value of measured normalized growth is listed for CC(C)(CO)C(O)C(=O)NCCCO (stereo not drawn) ? 1

Query (molecule): CC(C)=CCc1c(O)cc2oc(C)cc(=O)c2c1O ; field requested: normalized growth 1.01

# get_value(readout='normalized growth', item= CC(C)(N=NC(C)(C)C(=N)N)C(=N)N ) 0.995

# input molecule: O=C(O)C1CC([C@@H]2CCCCN2)CN2CCCCC12 (stereo partly drawn) ; wanted: its normalized growth 1.02

Need normalized growth, item CC1(C)S[C@@H]2[C@H](NC(=O)[C@H](NC(=O)N3CCNC3=O)c3ccccc3)C(=O)N2C1C(=O)O (stereo partly drawn) 0.989

Consider the molecule shown here: C1CCc2nnnn2CC1 What is its recorded normalized growth? 1.01

Quick one: normalized growth of OCc1ccccc1O[C@@H]1O[C@H](CO)[C@@H](O)[C@H](O)[C@H]1O ? 0.98

Fill in: normalized growth of NC(N)=NOCC[C@H](N)C(=O)O is ___ 1.01

---

assay_procedure: chemical genetic growth profiling, strain panel (AID 1159580);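 note: tested at 20 µM; growth read once vehicle control cultures reached saturation at 30 °C; 1 = growth at the plate median or of vehicle wells; lower values mean less growth of the strain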
measurement_context: S. cerevisiae deletion strains, growth OD, locus YBR279W, strain paf1, active compounds read low
Among all 5,500 compounds or so, about 2,000 (36%) were called active. About 18% were inconclusive and are not listed. The list shows a part of the results.
Quick reference: normalized growth of the listed items.

Which measured normalized growth value corresponds to C1CCc2nnnn2CC1 ? 1.01 (inactive)

Need normalized growth of CC(C)(CO)C(O)C(=O)NCCCO (stereo not drawn) , thanks. 1.01 (inactive)

Please report the recorded normalized growth for NC/C=C/C(=O)O . 1.01 (inactive)

Need normalized growth of CC(=O)O[C@@](C)(CCC=C(C)C)C1CC=C(C)CC1 (stereo partly drawn) , thanks. 0.987 (inactive)

For the compound NC(N)=Nc1nc(CSCCC(N)=NS(N)(=O)=O)cs1 , what normalized growth is on record? 0.997 (inactive)

Need normalized growth of COc1ccc([C@@H]2CC(=O)c3c(O)cc(O)cc3O2)cc1O , thanks. 0.982 (inactive)

May I ask what normalized growth has been recorded for C[C@@H]1O[C@@H](O[C@H]2[C@@H](Oc3cc(O)c4c(c3)O[C@H](c3ccc(O)cc3)CC4=O)O[C@H](CO)[C@@H](O)[C@@H]2O)[C@H](O)[C@H](O)[C@H]1O ? 0.975 (inactive)

What value of measured normalized growth is listed for O=C(/C=C/c1ccccc1)O[C@H]1C[C@@H](O)[C@]2(O)C=CO[C@@H](O[C@@H]3O[C@H](CO)[C@@H](O)[C@H](O)[C@H]3O)[C@H]12 ? 1.02 (inactive)
